- experimental_protocol: cytotoxicity by MTT in HIV-infected PBMC culture
- measurement_parameters: human, Median cytotoxicity concentration (CC50), PBMC infected with AZT-sensitive HIV-1 018a
quantity_name: CC50 at 96 h

Record Cc1cn([C@H]2C[C@H](N=[N+]=[N-])[C@@H](CO)O2)c(=O)[nH]c1=O [AZT, Zidovudine, reference compound] , field CC50 at 96 h: 77.2 µg/mL

----------
- experimental_protocol: cytotoxicity by MTT in HIV-infected PBMC culture
- measurement_parameters: human, Median cytotoxicity concentration (CC50), PBMC infected with AZT-resistant HIV-1 018c
quantity_name: CC50 at 96 h (µg/mL)
# number only, unit µg/mL dropped from output

Record Cc1cn([C@H]2C[C@H](N=[N+]=[N-])[C@@H](CO)O2)c(=O)[nH]c1=O [AZT, Zidovudine, reference compound] , field CC50 at 96 h: 88
